Test system: K562
Assay: Antiproliferative activity against human K562 cells at 40 uM after 48 hrs by MTT assay relative to control
Type: functional
EXPERIMENTAL_ENDPOINT: Activity

Below, each entry is followed by its recorded Activity result.
1) COc1ccc(-c2ccc3oc4ccc(=O)n(-c5ccc([N+](=O)[O-])cc5)c4c3c2)cn1 = 28.8%
2) COc1ccc(-c2ccc3oc4ccc(=O)n(-c5ccc(NC(C)=O)cc5)c4c3c2)cn1 = 47.5%
3) C=CC(=O)Nc1ccc(-n2c(=O)ccc3oc4ccc(-c5ccc(OC)cc5)cc4c32)cc1 = 28.3%
4) COc1ccc(-c2ccc3oc4ccc(=O)n(-c5ccc(N)cc5)c4c3c2)cn1 = 17.6%
5) CCOC(=O)CNc1ccc(-n2c(=O)ccc3oc4ccc(-c5ccc(OC)nc5)cc4c32)cc1 = 29.4%
6) COc1ccc(-c2ccc3oc4ccc(=O)n(-c5ccc(NCC(=O)O)cc5)c4c3c2)cn1 = 46%

Continue with the compound presented below.
Query block: Endpoint output: Activity of C=CC(=O)Nc1ccc(-n2c(=O)ccc3oc4ccc(-c5cccc([N+](=O)[O-])c5)cc4c32)cc1 . Value?
Result block: 39%
